Tested on: A549 NSCLC
ASSAY COMMENT: NCI tumour cell line growth inhibition, 48 h
Each entry below carries its reported TGI.

[
  {
    "COMPOUND": "Fc1ccc2c(c1)SC1Oc3ccccc3-c3c1c-2nn3-c1ccccc1 (centres undefined)",
    "TGI": "> 100 µM"
  },
  {
    "COMPOUND": "COc1cccc(CCn2c(N)c(C(=O)O)c3ccc([N+](=O)[O-])cc3c2=O)c1",
    "TGI": "> 100 µM"
  },
  {
    "COMPOUND": "C/C1=N\\NC(=O)c2ccccc2C(=O)N/N=C(\\C)c2cccc1n2.O=[N+]([O-])[O-].[Zn+2]",
    "TGI": "> 100 µM"
  }
]

Task: Using the record for CSc1c(S(C)=O)[nH]c2cc(Br)cc(Br)c12 (centres undefined) , state its measured TGI.
Result: 78.9 µM
